MEASURED ON: recombinant human PAI-1 (Homo sapiens, UniProt P05121)
Sequence (P05121 24-402): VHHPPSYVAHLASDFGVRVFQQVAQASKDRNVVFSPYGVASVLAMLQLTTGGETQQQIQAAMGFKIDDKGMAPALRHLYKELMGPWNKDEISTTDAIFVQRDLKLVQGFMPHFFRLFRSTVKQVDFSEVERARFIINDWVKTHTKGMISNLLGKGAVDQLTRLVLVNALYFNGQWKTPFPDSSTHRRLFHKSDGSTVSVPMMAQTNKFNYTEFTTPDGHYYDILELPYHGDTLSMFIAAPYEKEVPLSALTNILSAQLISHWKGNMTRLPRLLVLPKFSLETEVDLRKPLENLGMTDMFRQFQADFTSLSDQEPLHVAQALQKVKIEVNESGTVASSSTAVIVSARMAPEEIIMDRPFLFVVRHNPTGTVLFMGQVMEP
ASSAY REMARKS: Test Example 2: Human PAI-1 Inhibitory Activity (pH 7.4 HEPES buffer, 10 minutes incubation with two-chain tPA)
Assay type: biochemical
Design: purchased Molecular Innovations, Inc
MEASUREMENT CONTEXT: human PAI-1; calculated from the inhibition rates
QUANTITY MEASURED: pIC50
One number for each entry, as −log10 of the molar value.

For reference, reported pIC50 for CC(C)(C)c1ccc(Oc2ccc(-c3ccc(C(F)(F)F)cc3)cc2OCC(=O)O)cc1 stands at 5.84

----------
MEASURED ON: recombinant human PAI-1 (Homo sapiens, UniProt P05121)
ASSAY REMARKS: Test Example 2: Human PAI-1 Inhibitory Activity (pH 7.4 HEPES buffer, 10 minutes incubation with two-chain tPA)
Type: biochemical
Parameters: purchased Molecular Innovations, Inc
MEASUREMENT CONTEXT: read-out: Inhibition Rate of PAI-1 Activity (%)
QUANTITY MEASURED: inhibition at 0.3 µM (%)
Give bare numbers, in %.

>  <COMPOUND>
CC(C)(C)c1ccc(Oc2cc(-c3cccc(C(F)(F)F)c3)ccc2OCC(=O)O)cc1 [Compound 315]

>  <inhibition at 0.3 µM / %>
16

$$$$

Hi! Can you tell me inhibition at 0.3 µM for each of these compounds?
1. CCCCCCCOc1ccc(N(CCCCc2ccccc2)C(=O)C(=O)O)cc1-c1ccc(OC(F)(F)F)cc1 [Compound 394]
2. CC(C)(C)c1ccc(Oc2ccc(-c3cccc(OC(F)(F)F)c3)cc2OCC(=O)O)cc1 [Compound 329]

Output:
1. 69
2. 11

Hi! Can you tell me inhibition at 0.3 µM for each of these compounds?
1. CCCCCCCCCCOc1ccc(-c2ccc(OC(F)(F)F)cc2)cc1N(CCCCc1ccccc1)C(=O)C(=O)O [Compound 365]
2. CCCCC(Oc1ccc(-c2cccc(C(F)(F)F)c2)cc1Oc1ccc(C(C)(C)C)cc1)C(=O)O (stereo not shown) [Compound 320]
3. CCCCC1CCC(Oc2ccc(-c3ccc(OC(F)(F)F)cc3)cc2N(CCCCc2ccccc2)C(=O)C(=O)O)CC1 (stereo not shown) [Compound 637]
4. O=C(O)/C=C/c1ccc(-c2ccc(OC(F)(F)F)cc2)cc1OC(c1ccccc1)c1ccccc1 [Compound 506]

Output:
1. 97
2. 9
3. 5
4. 9

----------
MEASURED ON: recombinant human PAI-1 (Homo sapiens, UniProt P05121)
ASSAY REMARKS: Test Example 2: Human PAI-1 Inhibitory Activity (pH 7.4 HEPES buffer, 10 minutes incubation with two-chain tPA)
Format: biochemical
Design: purchased Molecular Innovations, Inc
MEASUREMENT CONTEXT: read-out: Inhibition Rate of PAI-1 Activity (%)
QUANTITY MEASURED: inhibition at 0.1 µM (%)
Answers are plain numbers, in %.

Example entries and their recorded answers appear below.
>  <COMPOUND>
CC(C)(C)c1ccc(-c2ccc(OCC(=O)O)c(Oc3cccc(C(C)(C)C)c3)c2)cc1 [Compound 465]

>  <inhibition at 0.1 µM (%)>
10

$$$$
>  <COMPOUND>
CCCCCCC(Oc1cc(-c2ccc(OC(F)(F)F)cc2)ccc1Oc1ccc(C(C)(C)C)cc1)C(=O)O (centres unmarked) [Compound 323]

>  <inhibition at 0.1 µM (%)>
19

$$$$

Hi! Can you tell me inhibition at 0.1 µM for each of these compounds?
1. CCCCOc1ccc(Oc2cc(-c3ccc(OC(F)(F)F)cc3)ccc2OCC(=O)O)cc1 [Compound 523]
2. CCCCCOc1ccc(-c2ccc(Oc3ccc(C(C)(C)C)cc3)c(OCC(=O)O)c2)cc1 [Compound 454]
3. CCCCCOc1cc(N(CCCCc2ccccc2)C(=O)C(=O)O)ccc1-c1ccc(OC(F)(F)F)cc1 [Compound 654]
4. CCCCC(C(=O)O)N(Cc1ccc(C(C)(C)C)cc1)c1cccc(-c2ccc(OC(F)(F)F)cc2)c1 (centres unmarked) [Compound 641]
5. CC(Oc1cc(-c2ccc(OC(F)(F)F)cc2)ccc1/C=C/C(=O)O)c1ccccc1 (centres unmarked) [Compound 500]
6. CCCCCCCCCCN(C(=O)C(=O)O)c1ccc(-c2ccc(OC(F)(F)F)cc2)cc1 [Compound 669]

Output:
11
11
4
9
19
28

----------
MEASURED ON: recombinant human PAI-1 (Homo sapiens)
ASSAY REMARKS: Test Example 2: Human PAI-1 Inhibitory Activity (pH 7.4 HEPES buffer, 10 minutes incubation with two-chain tPA)
Assay type: biochemical
Set-up: purchased Molecular Innovations, Inc
MEASUREMENT CONTEXT: read-out: Inhibition Rate of PAI-1 Activity (%)
QUANTITY MEASURED: inhibition at 0.1 µM (%)
Give bare numbers, in %.

Hi! Can you tell me inhibition at 0.1 µM for each of these compounds?
1. CC(C)(C)c1ccc(Oc2cc(-c3cc(Cl)ccc3Cl)ccc2CCC(=O)O)cc1 [Compound 484]
2. CCCCCOc1ccc(-c2ccc(Cl)cc2)cc1N(CCCCc1ccccc1)C(=O)C(=O)O [Compound 361]

Output:
0
9

----------
Kindly supply the reported inhibition at 3 µM values for the records listed here.
MEASURED ON: recombinant human PAI-1 (Homo sapiens, UniProt P05121)
ASSAY REMARKS: Test Example 2: Human PAI-1 Inhibitory Activity (pH 7.4 HEPES buffer, 10 minutes incubation with two-chain tPA)
Assay type: biochemical
Parameters: purchased Molecular Innovations, Inc
MEASUREMENT CONTEXT: read-out: Inhibition Rate of PAI-1 Activity (%)
Give bare numbers, in %.

Example entries and their recorded answers appear below.
>  <MOLECULE>
CCCCC(Oc1cc(Oc2ccc(C(C)(C)C)cc2)cc(-c2ccc(OC(F)(F)F)cc2)c1)C(=O)O (stereo not shown) [Compound 426]

>  <inhibition at 3 µM / %>
97

$$$$
>  <MOLECULE>
O=C(O)CCc1c(Oc2ccc(OC(F)(F)F)cc2)cccc1Oc1ccc(OC(F)(F)F)cc1 [Compound 98]

>  <inhibition at 3 µM / %>
84

$$$$

// next entry
Entry CCCCC(Oc1cc(Oc2ccc(OC(F)(F)F)cc2)ccc1OCCCCc1ccccc1)C(=O)O (stereo not shown) [Compound 309] under recombinant human PAI-1 (Homo sapiens, UniProt P05121) had inhibition at 3 µM of 91

----------
MEASURED ON: recombinant human PAI-1 (Homo sapiens, UniProt P05121)
ASSAY REMARKS: Test Example 2: Human PAI-1 Inhibitory Activity (pH 7.4 HEPES buffer, 10 minutes incubation with two-chain tPA)
Type: biochemical
Design: purchased Molecular Innovations, Inc
MEASUREMENT CONTEXT: read-out: Inhibition Rate of PAI-1 Activity (%)
Kind request: treat 2% as inclusive, so inhibition at 0.1 µM at 2% or higher is Yes, anything lower is No.

Would you please look over these solved cases?
>  <MOLECULE>
CC(C)(C)c1ccc(CN(C(=O)C(=O)O)c2ccc(OCc3ccccc3)c(-c3ccc(OC(F)(F)F)cc3)c2)cc1 [Compound 212]

>  <MEASURED ON>
recombinant human PAI-1 (Homo sapiens, UniProt P05121)

>  <CLASSIFICATION>
Yes

$$$$
>  <MOLECULE>
Cc1cc(C)cc(-c2ccc(CCC(=O)O)c(Oc3ccc(C(C)(C)C)cc3)c2)c1 [Compound 498]

>  <MEASURED ON>
recombinant human PAI-1 (Homo sapiens, UniProt P05121)

>  <CLASSIFICATION>
No

$$$$
>  <MOLECULE>
CC(C)(Oc1cccc(-c2ccc(OC(F)(F)F)cc2)c1OCc1ccc(C(C)(C)C)cc1)C(=O)O [Compound 118]

>  <MEASURED ON>
recombinant human PAI-1 (Homo sapiens, UniProt P05121)

>  <CLASSIFICATION>
No

$$$$
>  <MOLECULE>
CC(C)(C)c1ccc(-c2ccc(/C=C/C(=O)O)c(Oc3ccc(OC(F)(F)F)cc3)c2)cc1 [Compound 478]

>  <MEASURED ON>
recombinant human PAI-1 (Homo sapiens, UniProt P05121)

>  <CLASSIFICATION>
Yes

$$$$
>  <MOLECULE>
O=C(O)C(=O)N(CCCCc1ccccc1)c1ccc(N2CCSCC2)c(-c2ccc(OC(F)(F)F)cc2)c1 [Compound 675]

>  <MEASURED ON>
recombinant human PAI-1 (Homo sapiens, UniProt P05121)

>  <CLASSIFICATION>
Yes

$$$$

Pending molecule:
Input: Is reported inhibition at 0.1 µM greater than or equal to 2% here: CCC(CC)Oc1ccc(N(Cc2ccc(C(C)(C)C)cc2)C(=O)C(=O)O)cc1-c1ccc(OC(F)(F)F)cc1 [Compound 197]
Output: Yes

----------
Kindly supply the reported inhibition at 3 µM values for the records listed here.
MEASURED ON: recombinant human PAI-1 (Homo sapiens, UniProt P05121)
ASSAY REMARKS: Test Example 2: Human PAI-1 Inhibitory Activity (pH 7.4 HEPES buffer, 10 minutes incubation with two-chain tPA)
Format: biochemical
Parameters: purchased Molecular Innovations, Inc
MEASUREMENT CONTEXT: read-out: Inhibition Rate of PAI-1 Activity (%)
Numbers only, in %.

Example entries and their recorded answers appear below.
>  <COMPOUND>
CCCCc1ccc(Oc2cc(-c3ccc(OC(F)(F)F)cc3)ccc2CCC(=O)O)cc1

>  <UNIT ABBREV>
%

>  <READOUT NUMBER>
98

$$$$
>  <COMPOUND>
CC(C)(Oc1cc(-c2ccc(OC(F)(F)F)cc2)ccc1OCc1ccc(C(C)(C)C)cc1)C(=O)O

>  <UNIT ABBREV>
%

>  <READOUT NUMBER>
97

$$$$
>  <COMPOUND>
CC(C)(C)c1ccc(COc2ccc(N3CCN(c4ccc(OC(F)(F)F)cc4)CC3)cc2CCC(=O)O)cc1

>  <UNIT ABBREV>
%

>  <READOUT NUMBER>
93

$$$$
>  <COMPOUND>
CC(C)(C)c1ccc(Oc2cc(Oc3ccc(OC(F)(F)F)cc3)ccc2OCC(=O)O)cc1

>  <UNIT ABBREV>
%

>  <READOUT NUMBER>
98

$$$$
>  <COMPOUND>
CCCCC(Oc1cc(Oc2ccc(OC(F)(F)F)cc2)ccc1OCc1ccc(C(C)(C)C)cc1)C(=O)O (stereo not shown)

>  <UNIT ABBREV>
%

>  <READOUT NUMBER>
95

$$$$
>  <COMPOUND>
CCCCCOc1cc(-c2ccc(OC(F)(F)F)cc2)ccc1CN(C(=O)C(=O)O)c1ccc(C(C)(C)C)cc1

>  <UNIT ABBREV>
%

>  <READOUT NUMBER>
89

$$$$
>  <COMPOUND>
Cc1ccc(-c2ccc(OCC(=O)O)c(Oc3ccc(C(C)(C)C)cc3)c2)cc1

>  <UNIT ABBREV>
%

>  <READOUT NUMBER>
96

$$$$
>  <COMPOUND>
CCCCCOc1ccc(-c2ccc(OC(F)(F)F)cc2)cc1N(CCCOCc1ccccc1)C(=O)C(=O)O

>  <UNIT ABBREV>
%

>  <READOUT NUMBER>
97

$$$$

Hi! Can you tell me inhibition at 3 µM for each of these compounds?
1. COc1ccc(-c2ccc(OCC(=O)O)c(Oc3ccc(C(C)(C)C)cc3)c2)cc1
2. CC(C)(Oc1cc(-c2ccc(OC(F)(F)F)cc2)ccc1OCCCCc1ccccc1)C(=O)O
3. CC(C)(C)c1ccc(Oc2cc(-c3ccc(C(F)(F)F)cc3)ccc2OCC(=O)O)cc1
4. CC(C)(C)c1ccc(CN(C(=O)C(=O)O)c2ccc(-c3ccc(OC(F)(F)F)cc3)cc2)cc1
5. CN(C)c1ccc(N(Cc2ccc(C(C)(C)C)cc2)C(=O)C(=O)O)cc1-c1ccc(OC(F)(F)F)cc1
6. O=C(O)CCc1cc(-c2ccc(OC(F)(F)F)cc2)ccc1OCCCCc1ccccc1
7. CCCCCOc1ccc(-c2ccc(OC(F)(F)F)cc2)cc1N(CCCCc1ccc(F)cc1)C(=O)C(=O)O

Output:
1: 50; 2: 89; 3: 96; 4: 86; 5: 96; 6: 94; 7: 97
